- Procedure details: OD615 S. cerevisiae growth inhibition, permissive medium, pilot counter-assay, permissive growth control for S. cerevisiae lifespan shortening project (AID 705)
- Details: OD615, 24 h, at 10 µM, active compounds read high
Calls of active or inactive are those of the source.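 Rule for the calls: active = growth inhibition above 25% in both replicates, a cutoff set 3 SD above the mean; inconclusive = above 25% in only one replicate; inactive = the rest.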
Measured property: growth inhibition

[[record]]
molecule = "Cc1c(C(=O)Nc2ccncc2)sc2nc(-c3ccc(F)cc3)cn12"
reported = "-5.44% (inactive)"

[[record]]
molecule = "CCc1c(C)sc(NC(=O)C2CCCCC2C(=O)O)c1C(N)=O (centres undefined)"
reported = "15.1% (inactive)"

[[record]]
molecule = "CC(C)CCOC(=O)C1C2C=CC3(CN(Cc4cccs4)C(=O)C13)O2 (centres undefined)"
reported = "-9.53% (inactive)"

[[record]]
molecule = "O=C(CCc1ccccc1)N1CCN(CCO)CC1"
reported = "-4.45% (inactive)"

[[record]]
molecule = "CCOc1ccc(Nc2cc(C)nc3nc(C)nn23)cc1"
reported = "-10.9% (inactive)"

[[record]]
molecule = "COc1ccccc1C1CC(=O)NC(SCC(=O)Nc2ccccc2)=C1C#N (centres undefined)"
reported = "4.78% (inactive)"

[[record]]
molecule = "Clc1ccccc1CSc1nnc(-c2ccccn2)n1Cc1ccco1"
reported = "-5.1% (inactive)"

[[record]]
molecule = "O=C(c1cc(F)c(F)cc1Cl)N1CCCCC1"
reported = "-2.35% (inactive)"

[[record]]
molecule = "O=C(Cn1ncc2c(=O)oc3ccccc3c21)NCCN1CCN(c2ccccc2F)CC1"
reported = "1.82% (inactive)"

[[record]]
molecule = "Cn1c(SCc2nc3ccccc3[nH]2)nnc1-c1cccnc1"
reported = "3.69% (inactive)"

[[record]]
molecule = "NC(=O)c1ccsc1NC(=O)C1CC1"
reported = "-0.315% (inactive)"

[[record]]
molecule = "COc1ccc(CN2CCN(C(=O)c3cccs3)CC2)cc1Br"
reported = "-11.5% (inactive)"

[[record]]
molecule = "Cc1cc(NS(=O)(=O)c2ccc(NC(=O)c3cnc4scc(C)n4c3=O)cc2)nc(C)n1"
reported = "-8.46% (inactive)"

[[record]]
molecule = "O=C(Nc1cnc2ccccc2c1)c1ccncc1"
reported = "-8.13% (inactive)"

[[record]]
molecule = "CCN(CC)CCOc1ccc(Br)cc1"
reported = "-12.9% (inactive)"

[[record]]
molecule = "Cc1nn(-c2cccc(C(F)(F)F)c2)c(Cl)c1/C=N/n1cnnc1"
reported = "-2.49% (inactive)"

[[record]]
molecule = "COc1ccc(NC(=O)c2oc3ccccc3c2C)c(OC)c1"
reported = "-7.12% (inactive)"

[[record]]
molecule = "Cc1nn(Cc2ccccc2)c(N)c1C#N"
reported = "-2.69% (inactive)"

[[record]]
molecule = "CCOC(=O)CN1CC23C=CC(O2)C(C(=O)Nc2ccc4c(c2)OCO4)C3C1=O (centres undefined)"
reported = "-0.14% (inactive)"

[[record]]
molecule = "CCOC(=O)N1CCN(C(=O)c2oc3ccc(S(=O)(=O)N4CCOCC4)cc3c2C)CC1"
reported = "-6.53% (inactive)"

[[record]]
molecule = "Cc1ccc2c(c1)NC(=O)C(CC(=O)O)O2 (centres undefined)"
reported = "2.33% (inactive)"

[[record]]
molecule = "CCN1C(=S)SC(=O)C1=C1C=C(C)N(CCO)C(C)=C1"
reported = "1.7% (inactive)"

[[record]]
molecule = "CC1CCCCC1NC(=O)C1CCN(C(=O)c2sccc2-n2cccc2)CC1 (centres undefined)"
reported = "-4.95% (inactive)"

[[record]]
molecule = "c1ccc(Cc2nnc3sc(-c4ccc5c(c4)OCCO5)nn23)cc1"
reported = "4.51% (inactive)"


Ref: PubChem BioAssay
